- subject_of_test: Prothrombin (Homo sapiens)
- protocol: Inhibition constant was evaluated for inhibitory activity against the blood coagulant thrombin
What Ki was measured for each of the following?
Only the number, expressed in nM, is required.

Look up Ki for this molecule: CC(C)N(C)C(=O)[C@H](Cc1ccc(CN)cc1)NS(=O)(=O)c1ccc2ccccc2c1
600

Look up Ki for this molecule: CN(C)C(=O)[C@H](Cc1ccc(CN)cc1)NS(=O)(=O)c1ccc2ccccc2c1
3060

Look up Ki for this molecule: NCc1ccc(C[C@H](NS(=O)(=O)c2ccc3ccccc3c2)C(=O)N2CCCC2)cc1
200

Look up Ki for this molecule: NCc1ccc(C[C@H](NS(=O)(=O)c2ccc3ccccc3c2)C(=O)N2CCC(O)CC2)cc1
15600

Look up Ki for this molecule: CN(C(=O)[C@H](Cc1ccc(CN)cc1)NS(=O)(=O)c1ccc2ccccc2c1)C1CCCC1
50

Look up Ki for this molecule: NCc1ccc(C[C@H](NS(=O)(=O)c2ccc3ccccc3c2)C(=O)NCc2ccccc2)cc1
97200

Look up Ki for this molecule: CCCc1ccc(S(=O)(=O)N[C@@H](Cc2ccc(CN)cc2)C(=O)N(C)C2CCCC2)cc1
10

Look up Ki for this molecule: CC(C)NC(=O)[C@H](Cc1ccc(CN)cc1)NS(=O)(=O)c1ccc2ccccc2c1
31700
